src = patent US20250163162A1

studyTarget: T1, IL10Rα/IL2Rγ receptor (human, UniProt Q13651 22-578; P31785 23-369)
T1 sequence (looked up) 1: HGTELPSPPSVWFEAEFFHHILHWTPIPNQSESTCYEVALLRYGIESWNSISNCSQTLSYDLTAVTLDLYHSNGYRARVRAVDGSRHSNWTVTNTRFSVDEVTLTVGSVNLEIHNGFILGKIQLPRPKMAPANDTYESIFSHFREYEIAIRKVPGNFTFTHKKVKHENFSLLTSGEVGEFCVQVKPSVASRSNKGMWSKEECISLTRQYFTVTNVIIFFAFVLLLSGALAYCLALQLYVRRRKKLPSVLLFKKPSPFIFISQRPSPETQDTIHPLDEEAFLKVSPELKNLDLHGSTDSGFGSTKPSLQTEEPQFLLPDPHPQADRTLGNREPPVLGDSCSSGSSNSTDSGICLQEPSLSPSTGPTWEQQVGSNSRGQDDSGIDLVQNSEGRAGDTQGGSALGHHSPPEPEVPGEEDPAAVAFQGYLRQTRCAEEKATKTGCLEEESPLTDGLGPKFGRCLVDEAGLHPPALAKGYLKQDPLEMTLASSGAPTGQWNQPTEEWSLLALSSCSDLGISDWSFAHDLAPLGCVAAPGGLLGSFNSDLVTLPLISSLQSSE
T1 sequence (looked up) 2: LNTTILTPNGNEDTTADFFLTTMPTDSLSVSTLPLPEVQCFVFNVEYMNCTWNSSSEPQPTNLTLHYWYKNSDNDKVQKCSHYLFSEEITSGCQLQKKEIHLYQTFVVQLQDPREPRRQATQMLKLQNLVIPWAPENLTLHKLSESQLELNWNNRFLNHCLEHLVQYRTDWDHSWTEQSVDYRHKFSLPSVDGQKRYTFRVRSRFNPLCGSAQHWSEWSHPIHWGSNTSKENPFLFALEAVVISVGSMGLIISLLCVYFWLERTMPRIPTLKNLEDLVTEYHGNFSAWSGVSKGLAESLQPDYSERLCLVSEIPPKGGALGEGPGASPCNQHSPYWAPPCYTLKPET
assayComment: cell-based or functional assay
measuredProperty: pSTAT3 MFI, Monocytes, 10 nM (unstimulated 2116) (MFI)
Numeric only. Scale: MFI

Past entries and their recorded results:
DR471(DR241-DR231) (bispecific antibody) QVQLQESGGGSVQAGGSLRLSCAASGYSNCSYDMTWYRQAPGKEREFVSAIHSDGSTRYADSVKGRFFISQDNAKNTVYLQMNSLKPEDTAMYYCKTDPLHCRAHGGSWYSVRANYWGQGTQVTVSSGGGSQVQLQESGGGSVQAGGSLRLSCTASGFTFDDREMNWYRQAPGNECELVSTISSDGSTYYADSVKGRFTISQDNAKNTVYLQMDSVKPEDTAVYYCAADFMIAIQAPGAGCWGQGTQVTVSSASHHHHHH
2230
DR465(DR240-DR231) (bispecific antibody) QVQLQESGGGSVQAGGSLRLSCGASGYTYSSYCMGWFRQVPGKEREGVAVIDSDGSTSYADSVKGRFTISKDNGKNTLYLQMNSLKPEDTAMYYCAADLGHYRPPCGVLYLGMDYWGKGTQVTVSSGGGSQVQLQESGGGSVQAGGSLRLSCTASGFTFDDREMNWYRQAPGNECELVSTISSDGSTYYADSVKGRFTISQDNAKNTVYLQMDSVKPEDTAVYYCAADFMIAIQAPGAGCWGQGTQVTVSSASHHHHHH
2470

Fill blank: measured pSTAT3 MFI, Monocytes, 10 nM (unstimulated 2116) of the binder DR441(DR236-DR231) (bispecific antibody) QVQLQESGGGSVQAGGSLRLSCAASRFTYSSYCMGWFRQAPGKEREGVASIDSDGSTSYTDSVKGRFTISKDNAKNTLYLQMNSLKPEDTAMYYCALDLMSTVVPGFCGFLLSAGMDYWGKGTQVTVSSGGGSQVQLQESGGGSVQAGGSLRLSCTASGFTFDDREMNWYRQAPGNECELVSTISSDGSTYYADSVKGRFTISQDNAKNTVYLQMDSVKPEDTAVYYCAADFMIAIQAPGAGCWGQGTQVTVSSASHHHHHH is ____.
2340
